# studyTarget: T1, human gastric inhibitory peptide receptor (GIPR) (human, UniProt P48546 22-466)
# T1 sequence (looked up): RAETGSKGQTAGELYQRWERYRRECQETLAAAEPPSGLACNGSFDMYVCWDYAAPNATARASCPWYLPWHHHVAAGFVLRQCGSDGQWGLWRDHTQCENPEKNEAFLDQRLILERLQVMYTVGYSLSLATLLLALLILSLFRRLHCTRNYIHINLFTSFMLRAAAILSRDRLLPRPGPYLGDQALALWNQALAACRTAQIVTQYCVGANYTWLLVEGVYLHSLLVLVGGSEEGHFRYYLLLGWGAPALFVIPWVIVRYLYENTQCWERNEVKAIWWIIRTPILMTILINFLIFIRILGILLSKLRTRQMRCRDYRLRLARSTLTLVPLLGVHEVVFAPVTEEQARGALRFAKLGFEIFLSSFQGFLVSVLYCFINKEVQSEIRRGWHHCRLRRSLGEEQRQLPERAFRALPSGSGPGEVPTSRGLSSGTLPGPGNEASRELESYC
# experimentNotes: cell-based or functional assay
Numbered stars: 1 amine (or outer) side, 2 acyl side, 3 side chain; on linkers, the order of the positions; unused ones are H or OH. Square brackets hold non-standard residues; d marks the D form. Side chains are listed from the residue outwards. Ends that are not written are not given here. * marks the point of attachment. C20 diacid = O=C(O)CCCCCCCCCCCCCCCCCCC(=O)*; γGlu = O=C(O)[C@H](CCC(=O)[*:2])N[*:1]; αMeF = C[C@](N)(Cc1ccccc1)C(=O)O; AEEA = NCCOCCOCC(=O)O; Aib = CC(C)(N)C(=O)O
Here the recorded hGIPR cAMP Rel EC50 is given for each entry.
# unit: nM | format: bare number

Example binders with recorded hGIPR cAMP Rel EC50:
# binder, readoutKind, measuredResult
measured = [
    ("Y[Aib]EGT[αMeF]TSDYSIXLDKK([AEEA-AEEA-γGlu-C20 diacid])AQ[Aib]SFIEYLIEGGPSSGAPPPS-NH2 (not fully specified (residue 13); printed as Y-Aib-EGT-αMeF-TSDYSI-αMeF-LDKK((2-[2-(2-Amino-ethoxy)-ethoxy]-acetyl)2-(γ-Glu)-CO-(CH2)18-CO2H)AQ-Aib-SFIEYLIEGGPSSGAPPPS-NH2) [Example 138]", "hGIPR cAMP Rel EC50", 0.0581),
    ("YXEGTXTSDXSILLDKKAQXAFIEYLIEGGPSSGAPPPS (Y-Aib-EGT-αMeF-TSD-αMeF-SILLDKK((2-[2-(2-Amino-ethoxy)-ethoxy]-acetyl)2-(γ-Glu)-CO-(CH2)18-CO2H)AQ-Aib-AFIEYLIEGGPSSGAPPPS-NH2) [Example 131]", "hGIPR cAMP Rel EC50", 0.183),
    ("YXEGTXTSDHSIXLDEKAQXTFIXYLIXGGPSSGAPPPS (Y-Aib-EGT-αMeF(2F)-TSDHSI-αMeF-LDEK((2-[2-(2-Amino-ethoxy)-ethoxy]-acetyl)2-(γ-Glu)-CO-(CH2)18-CO2H)AQ-Aib-TFI-(D-Glu)-YLI-(D-Glu)-GGPSSGAPPPS-NH2) [Example 164]", "hGIPR cAMP Rel EC50", 3.09),
]

Okay, now this binder:
# input binder: YXEGTXTSDISILLDKKAQXAFIEYLIEGGPSSGAPPPS (Y-Aib-EGT-αMeF-TSDISILLDKK((2-[2-(2-Amino-ethoxy)-ethoxy]-acetyl)2-(γ-Glu)-CO-(CH2)18-CO2H)AQ-Aib-AFIEYLIEGGPSSGAPPPS-NH2) [Example 127] ; wanted: its hGIPR cAMP Rel EC50
0.158
